Cited source for all entries: patent US20110319362A1

- Test system: STAT3 protein (Homo sapiens, UniProt P40763)
- Construct: human STAT3 protein (residues 122-722) fused to His-tag; His-tag
- Sequence (P40763 122-722): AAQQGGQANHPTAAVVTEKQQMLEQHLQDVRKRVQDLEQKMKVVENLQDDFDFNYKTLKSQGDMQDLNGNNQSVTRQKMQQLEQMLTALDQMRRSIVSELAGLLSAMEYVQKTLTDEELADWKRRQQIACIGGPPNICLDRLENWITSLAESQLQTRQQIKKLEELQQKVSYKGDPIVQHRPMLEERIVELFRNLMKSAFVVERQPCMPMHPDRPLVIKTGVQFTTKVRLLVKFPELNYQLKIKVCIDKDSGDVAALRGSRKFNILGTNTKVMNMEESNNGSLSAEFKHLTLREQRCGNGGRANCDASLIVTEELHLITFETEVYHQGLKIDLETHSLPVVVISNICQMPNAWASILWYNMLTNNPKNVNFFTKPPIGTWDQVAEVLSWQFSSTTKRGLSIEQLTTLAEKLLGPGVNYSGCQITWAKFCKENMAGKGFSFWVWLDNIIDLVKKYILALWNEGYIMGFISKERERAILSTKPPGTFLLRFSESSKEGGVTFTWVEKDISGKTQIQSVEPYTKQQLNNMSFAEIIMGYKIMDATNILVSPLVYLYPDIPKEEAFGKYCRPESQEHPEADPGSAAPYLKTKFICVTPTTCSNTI
- Assay summary: In vitro competitive STAT3 binding assay (fluorescence polarization)
- Reported conditions: FP competitive binding, fluorescently tagged STT2 peptide tracer; read-out: Binding affinities to STAT3 IC50
pIC50: −log10 of the molar value.

Compound: CCOC(=O)C(Oc1ccc(C[C@H](NC(C)=O)C(=O)N[C@H]2CCCCC3CC[C@@H](C(=O)N[C@@H](CCC(N)=O)C(=O)NCc4ccccc4)N3C2=O)cc1)C(=O)OCC (stereo partly drawn)
pIC50: < 4.00

Compound: CC(=O)N[C@@H](Cc1ccc(OC(C(=O)O)C(=O)O)cc1)C(=O)N[C@H]1CCCCC2CC[C@@H](C(=O)N[C@@H](CCC(N)=O)C(=O)NCc3ccccc3)N2C1=O (stereo partly drawn)
pIC50: > 5.00

Compound: CN[C@@H](Cc1ccc(OCP(=O)(O)O)cc1)C(=O)NC1CCCC[C@H]2CC[C@@H](C(=O)N[C@@H](Cc3c[nH]cn3)C(=O)NCc3ccccc3)N2C1=O (stereo in doubt)
pIC50: > 4.00

Compound: CCOC(=O)COc1ccc(C[C@H](NC(C)=O)C(=O)N[C@H]2CCCCC3CC[C@@H](C(=O)N[C@@H](CCC(N)=O)C(=O)NCc4ccccc4)N3C2=O)cc1 (stereo partly drawn)
pIC50: < 4.00

Compound: NC(=O)CCCNC(=O)[C@@H]1CCC2CCCC[C@H](NC(=O)[C@H](Cc3ccc(OP(=O)(O)O)cc3)NC(=O)OCc3ccccc3)C(=O)N21 (stereo partly drawn)
pIC50: > 4.52

Compound: CCCCCCCCCCCCCCCCN1CCN(CCC(=O)N[C@@H](Cc2ccc(OP(=O)(O)O)cc2)C(=O)N[C@H]2CCCCC3CC[C@@H](C(=O)NCCc4nnc[nH]4)N3C2=O)CC1 (stereo partly drawn)
pIC50: > 5.30

Compound: CC(=O)N[C@@H](Cc1ccc(OCC(=O)O)cc1)C(=O)N[C@H]1CCCC[C@H]2CC[C@@H](C(=O)N[C@@H](CCC(N)=O)C(=O)NCc3ccccc3)N2C1=O
pIC50: < 4.30

Compound: CN(C)[C@@H](Cc1ccc(OP(=O)(O)O)cc1)C(=O)N[C@H]1CCCCC2CC[C@@H](C(=O)N[C@@H](Cc3c[nH]cn3)C(=O)NCc3ccccc3)N2C1=O (stereo in doubt)
pIC50: > 5.00

Compound: CN(C)[C@@H](Cc1ccc(CP(=O)(O)O)cc1)C(=O)N[C@H]1CCCC[C@H]2CC[C@@H](C(=O)N[C@@H](Cc3c[nH]cn3)C(=O)NCc3ccccc3)N2C1=O
pIC50: < 5.00

Compound: CN[C@@H](Cc1ccc(OP(=O)(O)O)cc1)C(=O)N[C@H]1CCCCC2CC[C@@H](C(=O)N[C@@H](CCC(N)=O)C(=O)NCc3ccccc3)N2C1=O (stereo in doubt)
pIC50: > 6.00

Compound: CCOC(=O)C(Oc1ccc(C[C@@H](C(=O)N[C@H]2CCCCC3CC[C@@H](C(=O)N[C@@H](CCCNC(C)=O)C(=O)NCc4ccccc4)N3C2=O)N(C)C)cc1)C(=O)OCC (stereo partly drawn)
pIC50: < 5.00

Compound: CCCCCCCCCCCCCCCCN1CCN(CCC(=O)N[C@@H](Cc2ccc(OP(=O)(O)O)cc2)C(=O)N[C@H]2CCCCC3CC[C@@H](C(=O)NCCCC(O)CO)N3C2=O)CC1 (stereo partly drawn)
pIC50: > 5.00

Compound: CCCCCCCCCCCCCCCCN1CCN(CCC(=O)N[C@@H](Cc2ccc(OP(=O)(O)O)cc2)C(=O)N[C@H]2CCCCC3CC[C@@H](C(=O)NCCN4CCNC4=O)N3C2=O)CC1 (stereo partly drawn)
pIC50: > 5.30

Compound: CN(C)[C@@H](Cc1ccc(OC(C(=O)O)C(=O)O)cc1)C(=O)N[C@H]1CCCCC2CC[C@@H](C(=O)N[C@@H](Cc3c[nH]cn3)C(=O)NCc3ccccc3)N2C1=O (stereo partly drawn)
pIC50: < 5.00

Compound: NC(=O)CC[C@H](NC(=O)[C@@H]1CC[C@@H]2CCCC[C@H](NC(=O)CCc3ccc(O)c(C(=O)O)c3)C(=O)N21)C(=O)NCc1ccccc1
pIC50: < 4.00

Compound: CN(C)C(=O)CCCNC(=O)[C@@H]1CC[C@@H]2CCCC[C@H](NC(=O)[C@H](Cc3ccc(OP(=O)(O)O)cc3)NC(=O)OCc3ccccc3)C(=O)N21
pIC50: > 4.52

Compound: CCCCCCCCCCCCCCCCN1CCN(CCC(=O)N[C@@H](Cc2ccc(OP(=O)(O)O)cc2)C(=O)N[C@H]2CCCCC3CC[C@@H](C(=O)N[C@@H](Cc4c[nH]cn4)C(=O)NCc4ccccc4)N3C2=O)CC1 (stereo partly drawn)
pIC50: > 5.30

Compound: CN[C@@H](Cc1ccc(OC(C(=O)O)C(=O)O)cc1)C(=O)N[C@H]1CCCCC2CC[C@@H](C(=O)N[C@@H](Cc3c[nH]cn3)C(=O)NCc3ccccc3)N2C1=O (stereo partly drawn)
pIC50: < 5.00

Compound: CC(=O)N[C@@H](Cc1ccc(OP(=O)(O)O)cc1)C(=O)N[C@H]1CCCC[C@H]2CC[C@@H](C(=O)N[C@@H](CCC(N)=O)C(=O)NCc3ccccc3)N2C1=O
pIC50: > 6.00

Compound: N[C@@H](Cc1ccc(OP(=O)(O)O)cc1)C(=O)N[C@H]1CCCCC2CC[C@@H](C(=O)N[C@@H](CCC(=O)NC(c3ccccc3)(c3ccccc3)c3ccccc3)C(=O)NCc3ccccc3)N2C1=O (stereo partly drawn)
pIC50: > 5.00

Compound: CCCCCCCCCCCCCCCCN1CCN(CCC(=O)N[C@@H](Cc2ccc(OP(=O)(O)O)cc2)C(=O)N[C@H]2CCCCC3CC[C@@H](C(=O)NCCc4cnc[nH]4)N3C2=O)CC1 (stereo partly drawn)
pIC50: > 5.00
